Biological target: human GABAA receptors containing the α5 subunit (Homo sapiens, UniProt P18507+P31644)
Sequence (P31644 32-462): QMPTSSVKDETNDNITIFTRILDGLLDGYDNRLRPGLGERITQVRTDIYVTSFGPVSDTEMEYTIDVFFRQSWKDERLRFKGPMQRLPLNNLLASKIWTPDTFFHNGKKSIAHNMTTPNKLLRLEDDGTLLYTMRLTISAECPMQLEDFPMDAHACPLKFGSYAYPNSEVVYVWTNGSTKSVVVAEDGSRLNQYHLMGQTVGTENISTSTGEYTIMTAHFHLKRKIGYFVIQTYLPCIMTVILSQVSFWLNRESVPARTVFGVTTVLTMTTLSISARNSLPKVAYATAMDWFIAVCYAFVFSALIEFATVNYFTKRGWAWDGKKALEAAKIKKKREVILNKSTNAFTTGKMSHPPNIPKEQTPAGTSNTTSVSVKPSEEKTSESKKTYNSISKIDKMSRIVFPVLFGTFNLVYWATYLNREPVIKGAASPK
Sequence (P28472 26-473 partner): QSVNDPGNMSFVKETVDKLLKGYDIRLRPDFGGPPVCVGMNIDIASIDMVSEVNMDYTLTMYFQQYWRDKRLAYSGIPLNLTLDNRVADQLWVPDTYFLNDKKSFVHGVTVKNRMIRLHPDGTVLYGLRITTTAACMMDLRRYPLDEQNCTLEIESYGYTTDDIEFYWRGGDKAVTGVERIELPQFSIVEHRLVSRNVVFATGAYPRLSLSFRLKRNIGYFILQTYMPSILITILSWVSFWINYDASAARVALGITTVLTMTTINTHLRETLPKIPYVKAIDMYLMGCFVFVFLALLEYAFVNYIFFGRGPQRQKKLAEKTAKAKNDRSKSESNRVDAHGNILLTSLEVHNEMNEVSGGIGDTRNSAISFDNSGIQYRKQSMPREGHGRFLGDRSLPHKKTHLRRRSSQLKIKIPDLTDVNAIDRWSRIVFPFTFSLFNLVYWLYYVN
Sequence (P18507 40-467 limits assumed): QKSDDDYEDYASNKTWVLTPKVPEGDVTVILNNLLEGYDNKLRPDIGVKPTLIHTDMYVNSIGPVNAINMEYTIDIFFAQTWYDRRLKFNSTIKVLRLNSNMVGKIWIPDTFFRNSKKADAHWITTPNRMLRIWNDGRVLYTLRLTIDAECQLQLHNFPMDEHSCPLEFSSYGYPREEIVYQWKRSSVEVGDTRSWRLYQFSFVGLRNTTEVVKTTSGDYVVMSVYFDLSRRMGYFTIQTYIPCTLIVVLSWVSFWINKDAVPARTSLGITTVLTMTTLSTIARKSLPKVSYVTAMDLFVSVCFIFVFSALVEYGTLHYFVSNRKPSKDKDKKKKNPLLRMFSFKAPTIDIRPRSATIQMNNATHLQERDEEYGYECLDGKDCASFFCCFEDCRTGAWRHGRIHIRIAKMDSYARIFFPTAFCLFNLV
Assay: [3H]-flumazenil (Ro 15-1788) displacement binding assay
Conditions: α5β3γ2 stably expressed in Ltk− cells; read-out: Ki value for displacement of [3H]Ro 15-1788 from the α5 subunit of the human GABAA receptor
quantity: Ki

Param item: `Cc1cc(-c2nnc3c4ccccc4c(OCc4cn(C)nn4)nn23)no1` ; param system: human GABAA receptors containing the α5 subunit (Homo sapiens, UniProt P18507+P31644); output Ki: ≤ 100 nM
